Cited source for all entries: patent US6818749

TARGET_OR_TEST_SYSTEM: anti-CC49 variable region (anti-idiotypic) antibodies in the serum of patient one
METHOD_DESCRIPTION: HPLC size exclusion; 5 µg cold competitor + ^125I-HuCC49 + patient serum; less complex = more competition
Satisfied if percent of complexes is below 4%. Not satisfied if not; exact matches included in Not satisfied.

## Input For this binder, is percent of complexes lower than 4%? HuCC49 CDR variant L-2 (antibody, V domains shown) VH: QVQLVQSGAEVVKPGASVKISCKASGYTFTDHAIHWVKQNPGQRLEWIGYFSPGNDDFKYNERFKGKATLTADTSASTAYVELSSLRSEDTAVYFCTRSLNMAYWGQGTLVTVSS VL: DIVMSQSPDSLAVSLGERVTLNCKSSQSLLYSGNQKNYLAWYQQKPGQSPKLLIYWASTRESGVPDRFSGSGSGTDFTLTISSVQAEDVAVYYCQQYYSYPLTFGAGTKLELK
## Output Satisfied

## Input Find out if reported percent of complexes for humanized monoclonal antibody HuCC49 (parental HuCC49) (antibody, V domains shown) VH: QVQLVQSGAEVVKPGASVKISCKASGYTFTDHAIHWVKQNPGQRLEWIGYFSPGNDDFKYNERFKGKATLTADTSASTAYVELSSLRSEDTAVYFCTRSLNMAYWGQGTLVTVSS VL: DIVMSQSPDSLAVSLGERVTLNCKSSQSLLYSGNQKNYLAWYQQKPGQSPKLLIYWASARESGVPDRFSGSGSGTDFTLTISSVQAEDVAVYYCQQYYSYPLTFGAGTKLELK is less than 4%
## Output Satisfied

## Input Lab log: compare recorded percent of complexes with 4%; is it strictly lower for HuCC49 CDR variant L-1,2 (antibody, V domains shown) VH: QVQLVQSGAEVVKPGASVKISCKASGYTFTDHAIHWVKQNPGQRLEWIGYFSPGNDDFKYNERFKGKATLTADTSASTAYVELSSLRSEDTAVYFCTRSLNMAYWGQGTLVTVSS VL: DIVMSQSPDSLAVSLGERVTLNCKSSQSVLYSSNSKNYLAWYQQKPGQSPKLLIYWASTRESGVPDRFSGSGSGTDFTLTISSVQAEDVAVYYCQQYYSYPLTFGAGTKLELK ?
## Output Not satisfied

## Input Please let me know if HuCC49 CDR variant H-3 (antibody, V domains shown) VH: QVQLVQSGAEVVKPGASVKISCKASGYTFTDHAIHWVKQNPGQRLEWIGYFSPGNDDFKYNERFKGKATLTADTSASTAYVELSSLRSEDTAVYFCTRGGYYGSGSGSNYWGQGTLVTVSS VL: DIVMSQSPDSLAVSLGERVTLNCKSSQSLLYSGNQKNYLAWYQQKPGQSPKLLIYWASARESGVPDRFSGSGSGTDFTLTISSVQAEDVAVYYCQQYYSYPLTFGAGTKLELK shows percent of complexes below 4%.
## Output Not satisfied
